System: glycine receptor (GlyR)
assay explanation: Glycine-induced chloride current (IGly), whole-cell patch-clamp in isolated pyramidal neurons of the rat hippocampus
Type: cell-based
experimental conditions: 0.1 μM of steroid; 100 μM glycine; mean ± SEM, normalized
metric name: τdes/τdes control of IGly
The response must contain the number and no unit.

Guide cases for τdes/τdes control of IGly, answers given:
| compound | metric name | test value |
| --- | --- | --- |
| C[C@]12CC[C@H]3[C@@H](CC=C4C[C@@H](O)CC[C@@]43C)[C@@H]1CC[C@@H]2O [Compound 7, 3β,17β-Androst-5-ene-3,17-diol] | τdes/τdes control of IGly | 0.72 |
| C[C@]12CCC(=O)C[C@@H]1CC[C@@H]1[C@@H]2CC[C@]2(C)[C@@H](O)CC[C@@H]12 [Compound 3, 17β-Hydroxy-5α-androstan-3-one] | τdes/τdes control of IGly | 0.72 |
| C[C@]12CCC(=O)C[C@H]1CC[C@@H]1[C@@H]2CC[C@]2(C)C(=O)CC[C@@H]12 [Compound 9, 5β-Androstane-3,17-dione] | τdes/τdes control of IGly | 0.72 |

Let us move to another entry and its τdes/τdes control of IGly.
stdin: # query: τdes/τdes control of IGly of entry C[C@]12CC[C@H]3[C@@H](CCC4=CC(=O)CC[C@@]43C)[C@@H]1CC[C@@H]2O [Compound 1, 17β-Hydroxyandrost-4-en-3-one]
stdout: 0.68
